tested on: Danio rerio embryo (fli1:egfp); experiment: pericardial area at 72 hpf (image area units (not stated)); higher = larger pericardial area (edema); settings: 0.05 µM; exposure: 5-72 hpf
observed property: pericardial area at 72 hpf
Number, no unit, nothing else.

Here are 5 compounds together with their reported answers.
# compound, pericardial area at 72 hpf
rows = [
    ("N#Cc1c(Cl)c(Cl)c(Cl)c(C#N)c1Cl", 17600),
    ("CCOC(=O)C(Cl)Cc1cc(-n2nc(C)n(C(F)F)c2=O)c(F)cc1Cl (stereo unspecified)", 13800),
    ("O=C(O)c1cc(Oc2ccc(C(F)(F)F)cc2Cl)ccc1[N+](=O)[O-]", 14900),
    ("C=C(C)[C@H]1Cc2c(ccc3c2O[C@@H]2COc4cc(OC)c(OC)cc4[C@@H]2C3=O)O1", 18800),
    ("CO/N=C(/C(=O)OC)c1ccccc1CO/N=C(\\C)c1cccc(C(F)(F)F)c1", 12800),
]

Query for Danio rerio embryo (fli1:egfp): what pericardial area at 72 hpf does the record show for CC(C)[C@H](C(=O)O[C@H](C#N)c1cccc(Oc2ccccc2)c1)c1ccc(Cl)cc1 [Esfenvalerate] ?
14800

Taken from the supplement of paper PMC4121296.
